experiment: Half life in CD-1 mouse liver microsomes at 1 uM measured after 60 mins in presence of NADPH by LC-MS/MS analysis; format: ADME, Microsome

{"input smiles": "N=C(NO)c1ccc2nc(-c3cccc(-c4cn5ccccc5n4)c3)[nH]c2c1", "half-life at 1 µM / min": 17.6}

---

molecular target: Histone deacetylase 5 (Homo sapiens); test: Inhibition of N-terminal GST-tagged human recombinant full length HDAC5 expressed in baculovirus-infected Sf9 cells assessed as reduction in 7-amino-4-methylcoumarin release measured every 5 mins by fluorescence based analysis
Sequence (Q9UQL6 whole entry): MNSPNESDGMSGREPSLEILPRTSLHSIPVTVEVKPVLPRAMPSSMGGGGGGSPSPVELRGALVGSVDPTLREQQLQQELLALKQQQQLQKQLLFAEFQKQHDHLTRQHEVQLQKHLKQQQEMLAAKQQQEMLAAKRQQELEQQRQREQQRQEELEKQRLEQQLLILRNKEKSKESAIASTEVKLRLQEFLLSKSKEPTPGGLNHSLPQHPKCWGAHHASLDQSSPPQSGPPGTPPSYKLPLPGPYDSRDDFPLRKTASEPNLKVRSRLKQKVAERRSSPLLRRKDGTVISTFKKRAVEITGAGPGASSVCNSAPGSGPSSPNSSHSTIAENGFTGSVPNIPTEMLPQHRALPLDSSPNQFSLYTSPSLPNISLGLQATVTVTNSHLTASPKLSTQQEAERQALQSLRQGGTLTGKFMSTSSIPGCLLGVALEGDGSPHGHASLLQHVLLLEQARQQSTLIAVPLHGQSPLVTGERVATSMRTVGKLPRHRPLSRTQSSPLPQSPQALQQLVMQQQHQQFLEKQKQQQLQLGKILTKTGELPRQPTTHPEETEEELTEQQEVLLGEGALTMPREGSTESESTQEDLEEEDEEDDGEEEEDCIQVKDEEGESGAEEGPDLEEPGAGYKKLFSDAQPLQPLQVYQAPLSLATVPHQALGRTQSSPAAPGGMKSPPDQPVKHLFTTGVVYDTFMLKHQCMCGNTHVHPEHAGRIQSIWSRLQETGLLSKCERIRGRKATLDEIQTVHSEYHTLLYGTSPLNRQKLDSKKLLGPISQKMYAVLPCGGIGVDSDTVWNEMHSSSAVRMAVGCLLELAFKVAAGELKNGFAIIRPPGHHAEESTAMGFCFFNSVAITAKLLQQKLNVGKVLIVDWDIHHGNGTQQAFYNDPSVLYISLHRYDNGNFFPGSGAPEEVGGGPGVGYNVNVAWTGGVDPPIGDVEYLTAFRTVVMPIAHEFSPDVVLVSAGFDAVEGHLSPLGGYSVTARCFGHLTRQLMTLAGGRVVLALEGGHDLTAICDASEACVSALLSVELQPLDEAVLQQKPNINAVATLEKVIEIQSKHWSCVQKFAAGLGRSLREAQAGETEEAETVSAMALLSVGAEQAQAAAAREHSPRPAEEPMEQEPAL
Reported IC50 values for a set of compounds
assay endpoint: IC50 (µM)

{"compound": "CC(C)(C)Nc1c(-c2cccc(C(=O)Nc3ccc(F)cc3N)c2)nc2ccccn12", "u": "µM", "reported relation": "=", "number": 12.4}
{"compound": "N=C(NO)c1ccc2nc(-c3cccc(-c4cn5ccccc5n4)c3)[nH]c2c1", "u": "µM", "reported relation": ">", "number": 10}
{"compound": "CC(C)(C)Nc1c(-c2cccc(-c3nc4cc(-c5noc(C(F)(F)F)n5)ccc4[nH]3)c2)nc2cnccn12", "u": "µM", "reported relation": "=", "number": 0.307}
{"compound": "CC(C)(C)Nc1c(-c2cccc(-c3nc4cc(-c5noc(C(F)(F)F)n5)ccc4[nH]3)c2)nc2ccccn12", "u": "µM", "reported relation": "=", "number": 0.31}
{"compound": "CC(C)(C)Nc1c(-c2ccc(-c3noc(C(F)(F)F)n3)cc2)nc2ccccn12", "u": "µM", "reported relation": "=", "number": 0.812}
{"compound": "O=C(NC1CCN(Cc2ccccc2)C1)c1ccc(-c2noc(C(F)(F)F)n2)cc1 (stereo unspecified)", "u": "µM", "reported relation": "=", "number": 0.061}

---

Reported IC50 values for a set of compounds
biological target: Histone deacetylase 4 (Homo sapiens, UniProt P56524); experiment: Inhibition of N-terminal GST-tagged/C-terminal His-tagged human recombinant HDAC4 (627 to 1084 residues) expressed in baculovirus-infected Sf9 cells assessed as reduction in 7-amino-4-methylcoumarin release measured every 5 mins by fluorescence based analysis
Sequence (P56524 whole entry, the tested form may be a part): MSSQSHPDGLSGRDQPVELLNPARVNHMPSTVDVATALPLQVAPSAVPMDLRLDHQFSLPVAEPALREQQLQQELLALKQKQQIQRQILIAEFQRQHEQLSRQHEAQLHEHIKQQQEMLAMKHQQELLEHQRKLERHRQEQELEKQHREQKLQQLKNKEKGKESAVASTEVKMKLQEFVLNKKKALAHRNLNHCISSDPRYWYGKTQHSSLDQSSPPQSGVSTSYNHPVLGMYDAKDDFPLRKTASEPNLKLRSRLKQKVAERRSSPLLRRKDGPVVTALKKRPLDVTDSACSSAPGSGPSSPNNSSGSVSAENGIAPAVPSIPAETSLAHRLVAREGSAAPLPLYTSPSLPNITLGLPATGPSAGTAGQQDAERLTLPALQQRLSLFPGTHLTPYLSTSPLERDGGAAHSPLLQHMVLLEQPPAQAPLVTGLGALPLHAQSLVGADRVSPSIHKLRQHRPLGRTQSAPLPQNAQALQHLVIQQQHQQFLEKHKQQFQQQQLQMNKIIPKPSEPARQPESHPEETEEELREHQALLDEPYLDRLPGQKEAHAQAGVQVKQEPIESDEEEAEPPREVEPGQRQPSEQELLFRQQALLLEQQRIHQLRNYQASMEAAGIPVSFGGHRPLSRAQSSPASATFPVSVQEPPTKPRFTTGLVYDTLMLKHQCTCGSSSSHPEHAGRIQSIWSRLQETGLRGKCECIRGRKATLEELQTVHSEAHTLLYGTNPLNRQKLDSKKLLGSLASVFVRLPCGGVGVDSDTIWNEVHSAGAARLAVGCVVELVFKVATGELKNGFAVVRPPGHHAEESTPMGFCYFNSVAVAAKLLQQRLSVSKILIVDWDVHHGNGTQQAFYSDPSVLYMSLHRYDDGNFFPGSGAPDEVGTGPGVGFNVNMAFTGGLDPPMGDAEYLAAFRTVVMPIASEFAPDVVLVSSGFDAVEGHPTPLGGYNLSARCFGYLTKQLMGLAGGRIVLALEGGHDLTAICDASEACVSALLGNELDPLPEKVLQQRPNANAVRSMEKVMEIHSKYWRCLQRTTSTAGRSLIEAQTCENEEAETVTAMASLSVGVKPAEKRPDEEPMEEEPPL
assay endpoint: IC50 (µM)

{"compound": "N=C(NO)c1ccc2nc(-c3cccc(-c4cn5ccccc5n4)c3)[nH]c2c1", "assay endpoint": "IC50", "reported relation": ">", "number": 10}
{"compound": "CC(C)(C)Nc1c(-c2ccc(-c3noc(C(F)(F)F)n3)cc2)nc2ccccn12", "assay endpoint": "IC50", "reported relation": "=", "number": 3.58}
{"compound": "CC(C)(C)Nc1c(-c2cccc(-c3nc4cc(-c5noc(C(F)(F)F)n5)ccc4[nH]3)c2)nc2ccccn12", "assay endpoint": "IC50", "reported relation": "=", "number": 1.65}
{"compound": "CC(C)(C)Nc1c(-c2cccc(-c3nc4cc(-c5noc(C(F)(F)F)n5)ccc4[nH]3)c2)nc2cnccn12", "assay endpoint": "IC50", "reported relation": "=", "number": 8}
{"compound": "O=C(NC1CCN(Cc2ccccc2)C1)c1ccc(-c2noc(C(F)(F)F)n2)cc1 (stereo unspecified)", "assay endpoint": "IC50", "reported relation": "=", "number": 0.019}
{"compound": "CC(C)(C)Nc1c(-c2cccc(C(=O)Nc3ccc(F)cc3N)c2)nc2ccccn12", "assay endpoint": "IC50", "reported relation": ">", "number": 10}
